# study system: Rat recombinant PDE10A (rPDE10A2) (Rattus norvegicus)
# Construct: made in house; host or cells: Sf9 insect cells (baculovirus)
# Sequence (Q9QYJ6 whole entry): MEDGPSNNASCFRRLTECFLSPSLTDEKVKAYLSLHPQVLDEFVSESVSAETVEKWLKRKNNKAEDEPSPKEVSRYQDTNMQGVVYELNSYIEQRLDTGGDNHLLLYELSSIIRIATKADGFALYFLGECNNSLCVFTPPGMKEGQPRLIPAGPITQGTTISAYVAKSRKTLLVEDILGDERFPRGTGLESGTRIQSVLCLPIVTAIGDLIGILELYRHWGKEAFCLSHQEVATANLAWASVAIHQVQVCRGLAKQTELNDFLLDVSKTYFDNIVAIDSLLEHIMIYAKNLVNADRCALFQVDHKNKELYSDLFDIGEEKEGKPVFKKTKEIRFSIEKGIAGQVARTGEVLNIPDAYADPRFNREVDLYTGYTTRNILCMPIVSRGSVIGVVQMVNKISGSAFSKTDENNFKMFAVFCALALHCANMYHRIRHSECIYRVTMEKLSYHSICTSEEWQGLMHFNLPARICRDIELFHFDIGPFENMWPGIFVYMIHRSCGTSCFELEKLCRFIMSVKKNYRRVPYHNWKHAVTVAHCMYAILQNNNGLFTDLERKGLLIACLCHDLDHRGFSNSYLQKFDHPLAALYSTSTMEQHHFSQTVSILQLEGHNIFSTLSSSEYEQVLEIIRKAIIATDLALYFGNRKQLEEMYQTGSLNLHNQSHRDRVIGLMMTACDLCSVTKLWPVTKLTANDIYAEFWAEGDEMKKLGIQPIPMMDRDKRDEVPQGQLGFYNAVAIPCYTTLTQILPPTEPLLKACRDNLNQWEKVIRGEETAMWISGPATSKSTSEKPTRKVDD
# assay details: In vitro assay PDE10A (SPA, 3H-cAMP)
# Type: biochemical
# assay setup: read-out: PIC50 PDE10 (converted)
The entries below come with measured IC50 values attached.

Query: Query the reported IC50 for Rat recombinant PDE10A (rPDE10A2) (Rattus norvegicus); item: "Cc1nc2ccc(CN3CCCC3)cc2n2c(-c3cncc(OCC4CC4)c3)nnc12"
Reply: > 10 µM

Query: Query the reported IC50 for Rat recombinant PDE10A (rPDE10A2) (Rattus norvegicus); item: "CCOCc1cncc(-c2nnc3c(C)nc4ccc(CNC5CCC5)cc4n23)c1"
Reply: > 10 µM

Query: Query the reported IC50 for Rat recombinant PDE10A (rPDE10A2) (Rattus norvegicus); item: "CCCCOc1cncc(-c2nnc3c(C)nc4ccc(CNCC)cc4n23)c1"
Reply: > 10 µM

Could you now consider this next compound?
Query: Query the reported IC50 for Rat recombinant PDE10A (rPDE10A2) (Rattus norvegicus); item: "CCCCOc1ccc(F)c(-c2nnc3c(C)nc4cc(Br)ccc4n23)c1"
Reply: > 10 µM

====

# study system: Human recombinant PDE2A (hPDE2A) (Homo sapiens)
# Construct: made in house; host or cells: Sf9 insect cells (baculovirus)
# Sequence (O00408 whole entry): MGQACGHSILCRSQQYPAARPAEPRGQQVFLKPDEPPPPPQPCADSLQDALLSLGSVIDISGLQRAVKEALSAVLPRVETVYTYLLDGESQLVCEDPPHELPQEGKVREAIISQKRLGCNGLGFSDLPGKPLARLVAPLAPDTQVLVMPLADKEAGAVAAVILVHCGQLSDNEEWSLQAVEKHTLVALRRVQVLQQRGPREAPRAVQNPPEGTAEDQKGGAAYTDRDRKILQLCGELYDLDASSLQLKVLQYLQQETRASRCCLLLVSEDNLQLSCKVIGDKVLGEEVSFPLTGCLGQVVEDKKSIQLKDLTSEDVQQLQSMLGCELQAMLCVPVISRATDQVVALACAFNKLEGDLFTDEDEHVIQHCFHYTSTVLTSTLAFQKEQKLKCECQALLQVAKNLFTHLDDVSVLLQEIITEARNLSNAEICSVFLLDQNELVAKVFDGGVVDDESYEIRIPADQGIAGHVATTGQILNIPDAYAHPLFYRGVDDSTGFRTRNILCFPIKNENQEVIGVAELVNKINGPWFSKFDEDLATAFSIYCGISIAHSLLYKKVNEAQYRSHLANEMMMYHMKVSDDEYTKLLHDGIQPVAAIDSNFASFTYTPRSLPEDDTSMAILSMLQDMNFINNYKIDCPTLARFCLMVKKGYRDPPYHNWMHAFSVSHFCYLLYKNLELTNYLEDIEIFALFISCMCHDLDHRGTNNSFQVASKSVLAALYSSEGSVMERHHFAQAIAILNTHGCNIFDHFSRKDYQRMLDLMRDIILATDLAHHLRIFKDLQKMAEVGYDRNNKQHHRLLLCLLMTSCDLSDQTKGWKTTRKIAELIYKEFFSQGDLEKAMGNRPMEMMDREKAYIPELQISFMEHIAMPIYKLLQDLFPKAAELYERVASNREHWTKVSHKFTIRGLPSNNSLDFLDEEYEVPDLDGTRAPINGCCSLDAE
# assay details: In vitro assay PDE2A (SPA, 3H-cGMP)
# Format: biochemical
# assay setup: read-out: pIC50 PDE2 (converted)
measured property: IC50 (nM)

Answered cases to consult:
Query: Look up IC50 for this compound: "COCCNc1ccc2nc(C)c3nnc(-c4ccccc4Cl)n3c2c1"
Reply: 6.17

Query: Look up IC50 for this compound: "CCCOc1ccc(Cl)c(-c2nnc3c(C)nc4ccc(CN5CCN(C)CC5)cc4n23)c1"
Reply: 33.1

(I) Cc1nc2ccc(C(=O)OCCCc3ccccc3)cc2n2c(-c3ccccc3)nnc12
(II) CCOc1ccc(Cl)c(-c2nnc3c(C)nc4ccc(OCCc5cccnc5)cc4n23)c1
(III) CCNC(=O)c1ccc2c(c1)nc(C)c1nnc(-c3cccnc3C)n12
(IV) C=Cc1ccc2nc(C)c3nnc(-c4ccccc4Cl)n3c2c1
(V) Cc1cncc(-c2nnc3c(C)nc4ccccc4n23)c1
Query: Please produce an ascending ranking of these compounds based on IC50. As an answer, provide the labels arranged in the order called for.
Reply: IV, II, I, III, V

====

# System: Apomorphine-induced agitation
# assay details: Reversal of Apomorphine-induced Agitation in Rats (APO)
# Format: in vivo, rat
# assay setup: oral route; apomorphine 1.0 mg/kg i.v.
measured property: PO Max effect (cumulative agitation score over 60 min)
Form rule: numeric answer, no unit written next to it.

Answered cases to consult:
Query: Look up PO Max effect (cumulative agitation score over 60 min) for this compound: "CCOC(=O)c1ccc2nc(C)c3nnc(-c4ccccc4Cl)n3c2c1"
Reply: 22

Query: Look up PO Max effect (cumulative agitation score over 60 min) for this compound: "Cc1nc2ccc(OC(F)(F)F)cc2n2c(-c3ccccc3Cl)nnc12"
Reply: 21

Query: Look up PO Max effect (cumulative agitation score over 60 min) for this compound: "Cc1nc2ccc(NCCc3ccccn3)cc2n2c(-c3ccccc3Cl)nnc12"
Reply: 21

Query: Look up PO Max effect (cumulative agitation score over 60 min) for this compound: "Cc1nc2ccc(C(=O)NCc3ccccn3)cc2n2c(-c3ccccc3Cl)nnc12"
Reply: 22

Query: Look up PO Max effect (cumulative agitation score over 60 min) for this compound: "Cc1ccc(Cl)c(-c2nnc3c(C)nc4ccc(C(=O)NCc5ccccn5)cc4n23)c1"
Reply: 21

Further cases:
Query: Look up PO Max effect (cumulative agitation score over 60 min) for this compound: "CCNC(=O)c1ccc2nc(C)c3nnc(-c4ccccc4F)n3c2c1"
Reply: 21

Query: Look up PO Max effect (cumulative agitation score over 60 min) for this compound: "Cc1nc2ccc(C(=O)NCCO)cc2n2c(-c3ccccc3Cl)nnc12"
Reply: 22

Query: Look up PO Max effect (cumulative agitation score over 60 min) for this compound: "CCNC(=O)c1ccc2nc(C)c3nnc(-c4ccccc4OC)n3c2c1"
Reply: 21

Query: Look up PO Max effect (cumulative agitation score over 60 min) for this compound: "CCNC(=O)c1ccc2nc(C)c3nnc(-c4ccccc4Cl)n3c2c1"
Reply: 21

Query: Look up PO Max effect (cumulative agitation score over 60 min) for this compound: "Cc1nc2cc(Br)ccc2n2c(-c3ccccc3Cl)nnc12"
Reply: 22

Query: Look up PO Max effect (cumulative agitation score over 60 min) for this compound: "Cc1nc2ccc(Br)cc2n2c(-c3ccccc3Cl)nnc12"
Reply: 22

Query: Look up PO Max effect (cumulative agitation score over 60 min) for this compound: "COc1ccccc1-c1nnc2c(C)nc3ccc(C(=O)NCc4ccccn4)cc3n12"
Reply: 24
